- Test system: M14 melanoma
- experiment summary: NCI tumour cell line growth inhibition, 48 h
assay metric: TGI

Recorded TGI, per entry:
compound | reported result
COc1cccc2c1C(=O)c1c(O)c3c(c(O)c1C2=O)CC(O)(/C(C)=N/NC(=O)CCC(=O)N/N=C(\C)C1(O)Cc2c(O)c4c(c(O)c2C(OC2CC(N)C(O)C(C)O2)C1)C(=O)c1c(OC)cccc1C4=O)CC3OC1CC(N)C(O)C(C)O1 (centres undefined) | 2.12 µM
Cc1ccsc1/C=N/Nc1ccc2ccccc2n1 | > 100 µM
COc1ccc(OC)c(C2Cc3cnc4nc(N)nc(N)c4c3C2)c1 (centres undefined) | > 100 µM
O=c1c2c(-c3ccccc3)onc2n(-c2ccccc2)c(=O)n1-c1ccccc1 | 49.7 µM
O=C(Nc1cc(Cl)ccc1Cl)c1cc2cccc(Cl)c2oc1=O | > 100 µM
CC(C)=C1C(=O)C[C@]2(C)C[C@H]3/C(=C(/C)CCC12)CC[C@@]3(C)O (some centres undefined) | > 50 µM
CC(CC(=O)O)C(C(=O)O)C(=O)O (centres undefined) | > 100 µM
CC1(C)OCCn2c1nc1c(N3CCOCC3)nc(-c3cnc(N)nc3)nc12 | > 100 µM

Could you now look at the following compound, please?
Give the value of TGI reported for the following: `CCOc1ccc2c(c1)[n+]([O-])c(-c1ccccc1Cl)c(N)[n+]2[O-]` > 100 µM

* * *

- System: DU-145 prostate
- experiment summary: NCI tumour cell line growth inhibition, 48 h
assay metric: TGI

Recorded TGI, per entry:
compound | TGI
O=C1NC(=S)NNC12c1ccccc1-c1ccccc12 | > 10 µM
Nc1nc(N)c(N=Nc2ccc([As](=O)(O)O)cc2)c(=O)[nH]1 | > 100 µM
O=C(c1c(F)ccc(NS(=O)(=O)N2CC[C@@H](F)C2)c1F)c1c[nH]c2ncc(-c3cnc(C4CC4)nc3)cc12 | > 76.8 µM
COc1ccc2[nH]cc(-c3nc(-c4c[nH]c5ncccc45)cs3)c2c1 | > 100 µM
COc1cc(C2c3cc4c(cc3C(O)C(CO)C2CO)OCO4)cc(OC)c1OC (stereo unspecified) | 15.4 µM

Give the value of TGI reported for the following: `NCCCNCCCCNCCCN` 23.2 µM

* * *

- Test system: K-562 leukemia
- experiment summary: NCI tumour cell line growth inhibition, 48 h
assay metric: GI50

Recorded GI50, per entry:
molecule | GI50
O=c1[nH]c(=O)n(C2CC(O)C(CO)O2)cc1CO (stereo unspecified) | > 100 µM
NS(=O)(=O)c1ccc(N(/C=C/C(=O)C(F)(F)F)CC(=O)c2ccc(Cl)cc2)cc1 | 33.5 µM
Nc1nccc2c1ccn2-c1ccc(NC(=O)c2ccc(N3CCOCC3)c(C(F)(F)F)c2)cc1 | 0.687 µM
C[C@H]1Oc2cc(cnc2N)-c2c(nn(C)c2C#N)CN(C)C(=O)c2ccc(F)cc21 | > 100 µM
COc1ccc2[nH]cc(-c3nc(-c4c[nH]c5ncccc45)cs3)c2c1 | 2.68 µM

Could you now look at the following molecule, please?
Give the value of GI50 reported for the following: `O=c1cc2oc3cc(O)c(O)cc3c(-c3ccccc3O)c-2cc1O` 5.76 µM

* * *

- System: OVCAR-3 ovarian
- experiment summary: NCI tumour cell line growth inhibition, 48 h
assay metric: TGI

Recorded TGI, per entry:
compound | TGI
O=C(c1cc(Cl)cc(Cl)c1)N1CCN(C(=O)c2cc(Cl)cc(Cl)c2)C1=S | 26.9 µM
CN1CCN(CN2C(=O)C3C4C=CC(C3C2=O)C2C(=O)N(CN3CCN(C)CC3)C(=O)C42)CC1 (stereo not drawn) | > 100 µM
Cc1ccc(/C=C/c2c(C(=O)/C=C/c3ccc(C(F)(F)F)cc3)c(C)nc3ccccc23)cc1 | 3.82 µM
N=c1ccn2c(n1)OC1C(O)C(CO)OC12 (stereo not drawn) | > 1000 µM
CN1C(=O)C(CC=O)(C(C)(C)C)c2ccccc21 (stereo not drawn) | > 100 µM

Could you tell me TGI for each of these compounds? They are listed below.
1. Cc1ccsc1/C=N/Nc1ccc2ccccc2n1
2. O=S(Cc1ccccn1)c1nc2ccccc2nc1-c1ccccc1 (stereo not drawn)
3. CCN(CC)c1nc(-c2ccc(Cl)cc2Cl)nc2ccccc12
4. COc1ccc(C(O)c2nccn2C)c(OC)c1 (stereo not drawn)
5. CC(=O)OC1(C#N)CC2OC1C1C2N=NN1C(=O)OC(C)(C)C (stereo not drawn)
6. O=[N+]([O-])c1cc2c(c3nonc13)OCCCCO2

> 100 µM
> 100 µM
47.2 µM
> 100 µM
> 100 µM
7.53 µM

Could you tell me TGI for each of these compounds? They are listed below.
1. N#C/C(N)=C(\C#N)NC=NCc1ccccc1
2. O=C1CC(C[C@H](O)C2CCCCC2O)CC(=O)N1Cc1ccccc1 (stereo partly drawn)
3. CN(CCN(C)C(=S)NN)C(=S)NN
4. Cc1cccc(C(C)C)c1NC(=O)CC1Sc2ccccc2NC1=O (stereo not drawn)
5. O=C(O)c1cccnc1

["> 100 µM", "> 100 µM", "> 100 µM", "> 100 µM", "> 100 µM"]

* * *

- Test system: M19-MEL melanoma
- experiment summary: NCI tumour cell line growth inhibition, 48 h
assay metric: TGI (µM)
Answers are plain numbers, in µM.

molecule | TGI [µM]
CC#C[P+](c1ccccc1)(c1ccccc1)c1ccccc1 | 11.8
O=C(NCCCCN=c1cccccc1NCCCCNC(=O)OCc1ccccc1)OCc1ccccc1 | 39.3

Could you now look at the following molecule, please?
Give the value of TGI reported for the following: COc1cccc2c1C(=O)c1c(O)c3c(c(O)c1C2=O)C[C@@](O)(C(=O)CO)C[C@@H]3OC1CC(N)C(OC)C(C)O1 (stereo not given in full) 0.237

* * *

- System: DU-145 prostate
- experiment summary: NCI tumour cell line growth inhibition, 48 h
assay metric: TGI

Recorded TGI, per entry:
compound | assayed target | TGI
COc1ccc(/C=N/n2c(-c3ccccc3)n[nH]c2=O)cc1 | DU-145 prostate | > 100 µM
COc1ccncc1C#Cc1cncc(C(=O)Nc2ccc(CN3CCN(C)CC3)c(C(F)(F)F)c2)c1 | DU-145 prostate | > 100 µM
Cn1cnc([N+](=O)[O-])c1S(=O)(=O)Oc1ccccc1 | DU-145 prostate | 17 µM

Could you tell me TGI for each of these compounds? They are listed below.
1. COc1ccc(-c2nc(SCC(=O)N/N=C/c3ccc(O)c(OC)c3)[nH]c2-c2ccc(OC)cc2)cc1
2. CCN(CC)CCOc1ccc(/C=C2\CC3C4CC=C5C[C@@H](O)CC[C@]5(C)C4CC[C@]3(C)C2=O)cc1OC (some centres undefined)
3. CCCn1c(N)c(C(=O)N/N=C(/C)c2cc3cccc(OC)c3o2)sc1=S

1: > 100 µM; 2: 21.4 µM; 3: > 100 µM

Could you tell me TGI for each of these compounds? They are listed below.
1. O=C(CCc1cc(O)cc(O)c1)NCCc1cc(O)cc(O)c1
2. C=CCCCCCCCCCCC1(O)C=CC2=[N+](CCCCCN=C(N)N)CCCN21 (centres undefined)
3. CN1CCN(CN2C(=O)C3C4C=CC(C3C2=O)C2C(=O)N(CN3CCN(C)CC3)C(=O)C42)CC1 (centres undefined)

> 100 µM
26.6 µM
> 31.6 µM

* * *

- Test system: A498 renal
- experiment summary: NCI tumour cell line growth inhibition, 48 h; in the data active = GI50 below about 0.43 µM; inactive = the rest
Answer with one of the outcomes given here: active, inactive

molecule | category label
O=c1[nH]c(=O)n(C2CC(O)C(CO)O2)cc1CO (configuration not stated) | inactive
Cc1csc(Nc2nc(-c3cccc(Br)c3)nc(C(Cl)(Cl)Cl)n2)n1 | inactive
N=c1ccn2c(n1)OC1C(O)C(CO)OC12 (configuration not stated) | inactive
NS(=O)(=O)c1ccc(N(/C=C/C(=O)C(F)(F)F)CC(=O)c2ccc(Cl)cc2)cc1 | inactive

Recorded call for `C=CCc1cccc(/C=N/NC(=O)CN2CCN(Cc3ccccc3)CC2)c1O` ? inactive

Recorded call for `COC12C=C/C(=C(/C(=O)OCc3ccncc3)C(=O)CCCCCCCCC3(OC)C=C/C(=C(/C(=O)OCc4ccncc4)C(=O)CCCCCCCC1)O3)O2` ? inactive

Recorded call for COc1cc(C2c3cc4c(cc3C(O)C(CO)C2CO)OCO4)cc(OC)c1OC (configuration not stated) ? active

Recorded call for `CCOc1ccc2nc(S/C(=C/C=C(C#N)C#N)c3ccc(C)cc3)sc2c1` ? inactive

* * *

- Tested on: MALME-3M melanoma
- experiment summary: NCI tumour cell line growth inhibition, 48 h
assay metric: log10 of TGI (log10 of the value in µM)
Note the log scale: values are log10 of TGI expressed in µM.

compound | log10 of TGI
CCCCCC(/C=C/C1CCC(=O)C1CC#C[Si](C)(C)C)OCc1ccccc1 (stereo not given) | 1.58
Cc1cccc(C(C)C)c1NC(=O)CC1Sc2ccccc2NC1=O (stereo not given) | 1.97
O=C(c1cc(Cl)cc(Cl)c1)N1CCN(C(=O)c2cc(Cl)cc(Cl)c2)C1=S | 1.41
Cc1ccc(/C=C/c2c(C(=O)/C=C/c3ccc(C(F)(F)F)cc3)c(C)nc3ccccc23)cc1 | 0.49

Could you tell me log10 of TGI for each of these compounds? They are listed below.
1. Cc1ccc(NC(=S)NNC(=O)c2cc(-c3ccccc3)nc3ccccc23)cc1
2. O=C(N/N=C1/C(=O)N(c2ccc(Cl)cc2Cl)C(=O)C(=O)C1c1nc2ccccc2o1)c1ccccc1O (stereo not given)

1.54
1.90
